Just for reference, paper PMC8042174 is where these values come from.

Target: FITC-labeled human GRK6A C-terminal 22 amino acid peptide, GRK6Act-22 (human)
Experiment: fluorescence polarisation; fluorescence anisotropy, direct saturation binding in solution; recombinant protein titrated to fixed FITC-GRK6Act-22 (0.4–1.0 μM); PBS pH 7.4, 0.1% BSA, 1 mM DTT, 23 °C; quadratic fit
measured metric: Kd (µM)

binder: recombinant N1P2-GAGA (natural protein) MSADAAAGAPLPRLCCLEKGPNGYGFHLHGEKGKLGQYIRLVEPGSPAEKAGLLAGDRLVEVNGENVEKETHQQVVSRIRAALNAVRLLVVDPETDEQLQKLGVQVREELLRAQEAPGQAEPPAAAEVQGAGNENEPREADKSHPEQRELRPRLCTMKKGPSGAGANLHSDKSKPGQFIRSVDPDSPAEASGLRAQDRIVEVNGVCMEGKQHGDVVSAIRAGGDETKLLVVDRETDEFFKKCRVIPSQEHLNGPLPVPFTNGEIQKENSREALAEAALESPRPALVRSASSDTSEELNSQDSPPKQDSTAPSSTSSSDPILDFNISLAMAKERAHQKRSSKRAPQMDWSKKNELFSNL
unit annotation: µM
meas value: 3.6
